The reported measurements were obtained from patent US20130309252A1.

target: Grasp55 PDZII′ (108-208), yeast two-hybrid construct (murine, UniProt Q99JX3 108-208); experiment: yeast two-hybrid, growth on selective medium

| BINDER | binding result |
| --- | --- |
| ADAM17 C-terminal sequence, yeast two-hybrid construct (other, not shown: Gal4 domain of the two-hybrid vector) CVDKKLDKQYESLSLFHHSNIEMLSSMDSASVRIIKPFPAPQTPGRLQALQPAAMMPPVSAAPKLDHQRMDTIQEDPSTDSHVDDDGFEKDPFPNSSTAAKSFEDLTDHPVTRSEKAASFKLQRQSRVDSKETEC | no binding |
| ADAM10 C-terminal sequence, yeast two-hybrid construct (other, not shown: Gal4 domain of the two-hybrid vector) FIKICSVHTPSSNPKLPPPKPLPGTLKRRRPPQPIQQPPRQRPREYQMGHMRR | no binding |
| ICCAYRRGCFISSKQDGESYKSPGKHDGVNYIRTSEEGDFRHKSSFVI (other, also called JAM-C C-terminal region; not shown: Gal4 domain of the two-hybrid vector) [JAM-C cytoplasmic C-terminal construct, yeast two-hybrid] | no binding |
| ICCAYRRGCFISSKQDGESYKSPGKHDGVNYIRTSEEGDFRHKSS (other, End at 307 worked out from 'deletion of the last three amino-acids' of 263-310; not shown: Gal4 domain of the two-hybrid vector) [JAM-C ΔPDZbm, yeast two-hybrid construct lacking the last three amino-acids] | no binding |
